# Assay remarks: Quantitative highthroughput screen to assess conditional lethalithy of SEM cells grown in RPMI1640 with unreated serum (RPMI+s) (AID 1963883); further: nearly all actives have a fitted effect of over 35% in size
# Measurement conditions: SEM B-ALL cells, CellTiter-Glo viability, 48 h; series mostly up to 45.8 µM
Inconclusive results are not listed. Calls of active or inactive are those of the source. The call rests on the fitted dose curve; in most records, active means well fitted cell-killing curve with a large enough effect; inconclusive means small, poorly fitted or top-dose-only effect, or effect the other way; inactive means no such curve, though single readings can be large or run the other way.
# output must be one of yes (active), no (inactive)

// known answers, use as guide
>>> group_label("C[C@@H](NCCCc1cccc(C(F)(F)F)c1)c1cccc2ccccc12")
"no"
>>> group_label("COc1cc2nc(N3CCN(C(=O)C4CCCO4)CC3)nc(N)c2cc1OC (stereo not given)")
"no"
>>> group_label("O=C(C=Cc1ccc(CN(CCO)CCc2c[nH]c3ccccc23)cc1)NO")
"yes"
>>> group_label("CCN1C[C@H](C)n2c(c(O)c3c(=O)n(Cc4ccc(F)c(Cl)c4)nc(C(=O)NC)c32)C1=O")
"no"

Problem: # fetch the recorded call for COc1ccc2nc(S(=O)Cc3ncc(C)c(OC)c3C)[nH]c2c1 (stereo not given) here
Solution: no

---

# Assay remarks: Cellular viability qHTS for adrenocortical cancer (ACC) cell line NCI-H295R (AID 1963990); further: nearly all actives have a fitted effect of over 60% in size; further: potency means the concentration at half of the fitted maximal effect
# Measurement conditions: CellTiter-Glo ATP luminescence, 48 h; series mostly up to 46.1 µM
Inconclusive results are not listed. Active and inactive are the calls of the source. Calls come from the whole dose curve; as a rule, active = well fitted cell-killing curve with a large enough effect; inconclusive = small, poorly fitted or top-dose-only effect; inactive = flat fitted curve, though single readings scatter.
Property: Potency

Reference set (8 entries):
>>> readout_value("COc1cc(C(C)C)c2c(c1)S(=O)(=O)N(COc1cc(=O)n3cccc(OCCN4CCCCC4)c3n1)C2=O")
"17800 nM (active)"
>>> readout_value("O=C1CCc2cc(OCCCCc3nnnn3C3CCCCC3)ccc2N1")
"inactive"
>>> readout_value("Nc1nc(Cl)nc2c1ncn2[C@H]1C[C@H](O)[C@@H](CO)O1")
"inactive"
>>> readout_value("CCOC(=O)NNc1nncc2ccccc12")
"inactive"
>>> readout_value("[O-][n+]1cccc(/C(Cl)=N/OC[C@@H](O)CN2CCCCC2)c1")
"inactive"
>>> readout_value("Cc1c(Cn2ccnc2)c2ccccc2n1CCC(=O)O")
"inactive"
>>> readout_value("O=C(NCc1ccc(S(=O)(=O)c2cccc(C(F)(F)F)c2)cc1)c1cnc2[nH]ncc2c1")
"17.8 nM (active)"
>>> readout_value("CC(=O)SC[C@@H](C)C(=O)N1CCC[C@H]1C(=O)N[C@@H](Cc1ccccc1)C(=O)O")
"inactive"

Problem: Need Potency, item O=C(NC[C@H](O)CN1CCc2ccccc2C1)c1ccnc(NC2CCC2)c1
Solution: inactive

Problem: Need Potency, item CCC(C)(Oc1ccc(C2(c3ccc(OC(C)(CC)C(=O)O)cc3)CCCCC2)cc1)C(=O)O (stereo not given)
Solution: inactive

Problem: Need Potency, item Clc1ccc(C(c2ccccc2Cl)C(Cl)Cl)cc1 (stereo not given)
Solution: 13000 nM (active)

Problem: Need Potency, item C[C@@H](O)[C@@H](C)Oc1nc(Nc2ccc(S(=N)(=O)C3CC3)cc2)ncc1C(F)(F)F (stereo not given in full)
Solution: inactive

Problem: Need Potency, item O=C(Cc1ccc(-c2ccc(OCCN3CCOCC3)cc2)cn1)NCc1ccccc1
Solution: 178 nM (active)

Problem: Need Potency, item Cc1ccc([N+](=O)[O-])cc1S(=O)(=O)N(C)/N=C/c1cnc2ccc(Br)cn12
Solution: 282 nM (active)

Problem: Need Potency, item O=C(OCC1(COC(=O)c2cccnc2)CCCC(COC(=O)c2cccnc2)(COC(=O)c2cccnc2)C1O)c1cccnc1
Solution: inactive
